system.name: HCN4 (Homo sapiens (Human), UniProt Q9Y3Q4)
Sequence (Q9Y3Q4 whole entry, species assumed): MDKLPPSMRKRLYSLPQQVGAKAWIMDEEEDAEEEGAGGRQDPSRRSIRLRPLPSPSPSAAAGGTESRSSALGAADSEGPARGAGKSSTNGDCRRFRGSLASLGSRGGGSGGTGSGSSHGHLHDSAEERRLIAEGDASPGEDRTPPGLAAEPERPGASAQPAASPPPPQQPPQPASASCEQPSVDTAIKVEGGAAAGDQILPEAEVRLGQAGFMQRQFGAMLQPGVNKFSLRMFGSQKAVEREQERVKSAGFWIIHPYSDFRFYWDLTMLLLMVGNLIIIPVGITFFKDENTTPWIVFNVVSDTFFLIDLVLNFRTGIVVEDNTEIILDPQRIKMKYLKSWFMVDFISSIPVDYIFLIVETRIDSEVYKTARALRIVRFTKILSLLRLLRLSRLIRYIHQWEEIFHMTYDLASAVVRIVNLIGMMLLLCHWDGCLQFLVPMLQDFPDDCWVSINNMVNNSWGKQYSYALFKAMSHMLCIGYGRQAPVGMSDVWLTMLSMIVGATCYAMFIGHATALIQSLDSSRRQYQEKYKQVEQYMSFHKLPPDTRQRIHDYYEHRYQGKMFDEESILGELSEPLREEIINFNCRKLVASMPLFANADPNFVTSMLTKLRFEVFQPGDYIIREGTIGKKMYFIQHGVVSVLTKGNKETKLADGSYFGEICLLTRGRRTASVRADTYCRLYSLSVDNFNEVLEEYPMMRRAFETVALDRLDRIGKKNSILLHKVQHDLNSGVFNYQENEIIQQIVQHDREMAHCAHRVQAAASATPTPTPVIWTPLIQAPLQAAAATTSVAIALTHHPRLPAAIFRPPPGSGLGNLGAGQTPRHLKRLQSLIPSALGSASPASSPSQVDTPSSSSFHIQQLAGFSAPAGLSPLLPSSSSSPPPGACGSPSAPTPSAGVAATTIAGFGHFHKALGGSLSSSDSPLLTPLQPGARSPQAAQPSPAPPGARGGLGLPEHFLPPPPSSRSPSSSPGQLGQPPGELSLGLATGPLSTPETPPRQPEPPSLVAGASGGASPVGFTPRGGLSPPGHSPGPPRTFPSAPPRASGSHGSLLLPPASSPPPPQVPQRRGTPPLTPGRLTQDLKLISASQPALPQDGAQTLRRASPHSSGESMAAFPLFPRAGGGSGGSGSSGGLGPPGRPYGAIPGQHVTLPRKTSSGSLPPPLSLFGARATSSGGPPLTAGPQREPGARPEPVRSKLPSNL
assay.protocol: HCN4 current assay using PatchXpress 7000A
Assay type: cell-based
test.parameters: PatchXpress protocol; read-out: PX HCN4 IC50
Where a name gives a salt, the structure may show the parent alone.
pIC50 reference
Scale note: pIC50 = -log10(concentration in M).

Reference set (10 entries):
Provide one value: measured pIC50 of N[C@@H](Cc1cccc(C(=O)NCC2CC2)n1)c1ccccc1-c1noc2ccccc12 [Example 107, hydrochloride]
5.49

For the compound COCCN(C)c1cccc(C[C@H](N)c2ccccc2-c2noc3ccccc23)n1 [Example 51, hydrochloride] , give its measured pIC50 value.
5.47

# return recorded pIC50 for input CC(C)(c1ccccn1)[C@H](N)c1ccccc1-c1noc2ccccc12 [Example 49, hydrochloride]
4.65

Let me know recorded pIC50 for N[C@@H](Cc1cccc(Br)n1)c1ccccc1-c1noc2ccccc12 [Example 44] , thanks.
5.14

Please indicate pIC50 recorded for CNC(=O)c1cccc(C[C@H](N)c2ccccc2-c2noc3ccccc23)n1 [Example 105, hydrochloride]
5.21

Answer with the recorded pIC50 of Cc1ccc(F)c(C[C@H](N)c2ccccc2-c2noc3ccccc23)n1 [Example 73, hydrochloride] only.
5.55

Fill in reported pIC50 for this entry: N[C@@H](Cc1cccc(N2CCOCC2)n1)c1ccccc1-c1noc2ccccc12 [Example 54, hydrochloride]
5.68

Quickly give me recorded pIC50 for CC(C)n1nc(-c2ccccc2[C@@H](N)Cc2cccc(Br)n2)c2ccccc21 [Example 64, hydrochloride]
5.19

Please report pIC50 for the following compound: N[C@@H](Cc1nc(CCO)ccc1F)c1ccccc1-c1noc2ccccc12 [Example 77, hydrochloride]
4.98

Provide one value: measured pIC50 of N[C@@H](Cc1cc(Br)ccn1)c1ccccc1-c1noc2ccccc12 [Example 117, hydrochloride]
4.91

Now consider the entry below.
Return pIC50 for the following compound: N#Cc1cccc(C[C@H](N)c2c(F)cccc2-c2noc3ccccc23)n1 [Example 110, hydrochloride]
4.82
